- tested on: hormone sensitive lipase (HSL) (Homo sapiens)
- Sequence (Q05469 whole entry, species assumed): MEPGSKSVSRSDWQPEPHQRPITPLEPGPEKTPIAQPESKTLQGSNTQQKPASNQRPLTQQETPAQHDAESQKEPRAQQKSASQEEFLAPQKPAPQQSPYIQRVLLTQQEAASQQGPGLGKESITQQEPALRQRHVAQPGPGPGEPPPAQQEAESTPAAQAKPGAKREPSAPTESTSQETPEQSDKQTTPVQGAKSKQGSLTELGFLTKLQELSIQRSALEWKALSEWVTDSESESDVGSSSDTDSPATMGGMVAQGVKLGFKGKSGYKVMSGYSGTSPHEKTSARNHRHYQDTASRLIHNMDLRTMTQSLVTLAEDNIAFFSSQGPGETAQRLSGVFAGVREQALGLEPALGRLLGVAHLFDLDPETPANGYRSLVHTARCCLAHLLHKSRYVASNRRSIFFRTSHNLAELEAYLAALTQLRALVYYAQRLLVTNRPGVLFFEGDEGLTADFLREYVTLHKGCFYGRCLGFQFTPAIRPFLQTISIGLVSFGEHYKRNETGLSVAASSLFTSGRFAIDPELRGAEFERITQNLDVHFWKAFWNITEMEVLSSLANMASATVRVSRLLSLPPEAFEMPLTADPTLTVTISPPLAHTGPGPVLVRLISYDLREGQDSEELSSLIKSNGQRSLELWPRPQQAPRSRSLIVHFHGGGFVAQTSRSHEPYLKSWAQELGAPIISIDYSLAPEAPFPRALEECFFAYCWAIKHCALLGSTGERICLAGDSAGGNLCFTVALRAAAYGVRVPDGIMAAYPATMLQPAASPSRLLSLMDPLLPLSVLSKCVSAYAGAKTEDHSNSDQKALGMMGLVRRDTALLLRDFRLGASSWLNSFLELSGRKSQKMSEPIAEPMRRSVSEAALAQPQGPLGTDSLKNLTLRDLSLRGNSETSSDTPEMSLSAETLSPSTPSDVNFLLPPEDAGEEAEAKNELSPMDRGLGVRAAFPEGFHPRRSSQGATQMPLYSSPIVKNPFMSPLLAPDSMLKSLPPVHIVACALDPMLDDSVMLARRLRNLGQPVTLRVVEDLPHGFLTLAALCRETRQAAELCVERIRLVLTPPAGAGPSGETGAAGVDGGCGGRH
- procedure details: 3190.1: percent inhibition of hormone sensitive lipase at 10 μM (fluorochrome-labeled triacylglyceride emulsion, HSL_FL)
- Format: biochemical
- condition description: 10 μM sample concentration; % activity relative to non-inhibited sample (no compound); 30 min pre-incubation at 25° C., 120 min at 37° C.
experimental endpoint: activity at 10 µM (%)
// return numeric value only (unit: %, not printed)

(Q) # input compound: "Cc1cccc(Cc2ccc(OC(=O)N(C)c3ccccc3)cc2)n1" ; wanted: its activity at 10 µM
(A) 5

(Q) Find the recorded activity at 10 µM belonging to "CN(C(=O)Oc1ccc(CCSc2ncc[nH]2)cc1)c1ccccc1" and report it.
(A) 1

(Q) Which activity at 10 µM is reported for this compound? "CN(C(=O)Oc1ccc(CCOc2ccncc2)cc1)c1ccccc1"
(A) 1

(Q) Please look up its activity at 10 µM: "CN(C(=O)Oc1ccc(CSc2ncc[nH]2)cc1)c1ccccc1"
(A) 1
